- Assay info: Solubility at pH 6.8
- Format: physicochemical
- Conditions used: pH 6.8, aqueous buffer, thermodynamic from solid; read-out: solubility
Quantity kind: solubility (µg/mL)

• CCOc1cc(-c2ccc3ncc4c(c3c2)n(-c2c(C)nn(CC(=O)N(C)C)c2C)c(=O)n4C)cnc1C [Example 85.3] = 76
• CCOc1cc(-c2ccc3ncc4c(c3c2)n(-c2cn(C)nc2C)c(=O)n4C)cnc1C [Example 85.1] = 6
• CCn1cc(-n2c(=O)n(C)c3cnc4ccc(-c5ccc(N(C)C)nc5)cc4c32)c(C)n1 [Example 4.2] = 7
• COc1ccc(-c2ccc3ncc4c(c3c2)n(-c2cc(C)nn2C)c(=O)n4C)cn1 [Example 2.3] = 7

(P) COc1ccc(-c2ccc3ncc4c(c3c2)n(-c2c(C)cnn2C)c(=O)n4C)cc1OC [Example 1.7]
(Q) Cc1nn(C)cc1-n1c(=O)n(C)c2cnc3ccc(-c4ccc(C(N)=O)cc4)cc3c21 [Example 41]
Query string: Which shows the larger solubility value: P or Q ? // output: label of the selected item
Result string: Q

---

- Target or system: PI3K beta (Homo sapiens)
- Construct: for the full-length p110-b subunit are generated and fused by overlapping PCR; p85(iSH2) fusion partner (see partner chain) (N); His tag (C); Tn5 (Trichoplusia ni) or TiniPro insect cells
- Sequence (P42338 with tags, fused parts or gaps limits assumed): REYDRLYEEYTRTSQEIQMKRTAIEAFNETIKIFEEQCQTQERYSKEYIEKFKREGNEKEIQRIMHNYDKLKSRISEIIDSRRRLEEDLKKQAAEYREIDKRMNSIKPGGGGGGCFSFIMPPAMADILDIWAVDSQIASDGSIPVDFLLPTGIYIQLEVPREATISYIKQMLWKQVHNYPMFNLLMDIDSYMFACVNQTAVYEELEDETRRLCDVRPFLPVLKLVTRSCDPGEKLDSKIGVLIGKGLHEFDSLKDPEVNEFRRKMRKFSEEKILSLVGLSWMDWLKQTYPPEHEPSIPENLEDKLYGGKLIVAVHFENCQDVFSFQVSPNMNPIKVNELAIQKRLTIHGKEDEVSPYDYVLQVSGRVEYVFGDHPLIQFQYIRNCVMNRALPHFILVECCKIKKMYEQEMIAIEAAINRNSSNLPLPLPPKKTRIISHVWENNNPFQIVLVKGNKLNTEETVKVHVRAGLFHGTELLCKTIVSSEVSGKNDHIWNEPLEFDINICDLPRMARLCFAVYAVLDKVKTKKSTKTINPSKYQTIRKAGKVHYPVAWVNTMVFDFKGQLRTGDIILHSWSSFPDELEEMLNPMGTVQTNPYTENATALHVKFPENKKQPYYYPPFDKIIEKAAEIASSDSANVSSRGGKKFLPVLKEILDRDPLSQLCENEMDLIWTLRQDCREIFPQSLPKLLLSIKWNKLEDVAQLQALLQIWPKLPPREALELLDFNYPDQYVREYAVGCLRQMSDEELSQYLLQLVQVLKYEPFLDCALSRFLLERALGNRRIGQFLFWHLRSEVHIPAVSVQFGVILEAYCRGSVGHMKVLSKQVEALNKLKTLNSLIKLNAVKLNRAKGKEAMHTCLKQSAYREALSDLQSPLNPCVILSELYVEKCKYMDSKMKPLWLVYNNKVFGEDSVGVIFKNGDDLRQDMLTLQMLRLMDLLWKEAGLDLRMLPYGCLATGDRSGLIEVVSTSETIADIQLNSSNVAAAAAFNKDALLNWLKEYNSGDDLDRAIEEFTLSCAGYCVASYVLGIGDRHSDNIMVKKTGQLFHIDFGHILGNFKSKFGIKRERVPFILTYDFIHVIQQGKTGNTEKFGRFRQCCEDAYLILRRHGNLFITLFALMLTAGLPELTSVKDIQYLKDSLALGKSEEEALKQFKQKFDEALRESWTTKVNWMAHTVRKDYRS
- Assay info: PI3K beta kinase assay (Kinase-Glo luminescence)
Quantity kind: IC50 (µM)

Here is how some compounds turned out for IC50.
* Cc1nn(C)c(C)c1-n1c(=O)n(C)c2cnc3ccc(-c4cnc(Cl)c(N)c4)cc3c21 | 0.079
* CCn1c(=O)n(-c2cn(C)nc2C)c2c3cc(-c4cncc(N)c4)ccc3ncc21 | 0.162
* CCNc1ncc(-c2ccc3ncc4c(c3c2)n(-c2cn(C)nc2C)c(=O)n4C)cc1Cl | 0.114

(P) CNc1cc(-c2ccc3ncc4c(c3c2)n(-c2cn(C)nc2Cl)c(=O)n4C)cnc1CO
(Q) CCn1cc(-n2c(=O)n(C)c3cnc4ccc(-c5cnc(OC)nc5)cc4c32)c(C)n1
(R) Cc1nn(C)cc1-n1c(=O)n(C)c2cnc3ccc(-c4cnc(CO)c(OC(C)C)c4)cc3c21
Query string: Kindly order the items shown according to IC50, from the highest value down. Field: ranking. Enter the labels in the order requested.
Result string: Q, R, P
(Q: 0.12 µM, R: 0.036 µM, P: 0.008 µM)

---

- Target or system: UniProtKB P42345
- Sequence (P42345 1360-2549 limits assumed): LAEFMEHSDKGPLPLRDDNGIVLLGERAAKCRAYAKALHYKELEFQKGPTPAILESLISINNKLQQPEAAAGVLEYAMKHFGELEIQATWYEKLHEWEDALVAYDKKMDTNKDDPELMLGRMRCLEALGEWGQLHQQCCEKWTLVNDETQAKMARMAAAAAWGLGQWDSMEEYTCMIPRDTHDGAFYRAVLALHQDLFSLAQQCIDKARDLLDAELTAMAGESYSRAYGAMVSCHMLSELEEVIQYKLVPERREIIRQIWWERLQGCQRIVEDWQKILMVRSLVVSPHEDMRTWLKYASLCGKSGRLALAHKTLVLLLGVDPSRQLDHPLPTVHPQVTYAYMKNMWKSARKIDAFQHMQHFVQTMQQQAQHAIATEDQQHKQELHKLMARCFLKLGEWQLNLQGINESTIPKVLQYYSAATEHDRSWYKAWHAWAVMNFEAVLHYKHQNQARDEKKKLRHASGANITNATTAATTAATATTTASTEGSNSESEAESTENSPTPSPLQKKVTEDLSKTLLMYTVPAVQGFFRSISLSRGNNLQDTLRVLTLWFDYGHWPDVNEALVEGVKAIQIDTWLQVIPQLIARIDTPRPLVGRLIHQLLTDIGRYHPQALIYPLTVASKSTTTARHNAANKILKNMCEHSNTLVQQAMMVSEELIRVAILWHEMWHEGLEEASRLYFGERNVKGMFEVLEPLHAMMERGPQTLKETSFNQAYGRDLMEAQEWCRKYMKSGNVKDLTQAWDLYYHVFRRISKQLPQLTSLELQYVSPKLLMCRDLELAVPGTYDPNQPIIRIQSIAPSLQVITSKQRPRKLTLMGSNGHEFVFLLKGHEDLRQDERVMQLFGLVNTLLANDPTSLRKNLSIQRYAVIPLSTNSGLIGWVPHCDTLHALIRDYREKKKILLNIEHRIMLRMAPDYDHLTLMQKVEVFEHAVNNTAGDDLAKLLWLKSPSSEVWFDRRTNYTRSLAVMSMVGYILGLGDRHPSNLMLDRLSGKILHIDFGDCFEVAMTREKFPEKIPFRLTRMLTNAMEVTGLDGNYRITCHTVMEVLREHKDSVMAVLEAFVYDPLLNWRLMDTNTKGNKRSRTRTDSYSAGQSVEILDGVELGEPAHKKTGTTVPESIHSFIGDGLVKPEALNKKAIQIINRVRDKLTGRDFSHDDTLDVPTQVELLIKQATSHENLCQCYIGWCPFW
Quantity kind: IC50 (nM)

- CCn1nccc1-n1c(=O)n(C)c2cnc3ccc(-c4ccc(OC)c(OC)c4)cc3c21: 155
- CCNc1cc(-c2ccc3ncc4c(c3c2)n(-c2cn(CC)nc2C)c(=O)n4C)cnc1CO: 12
- Cc1nn(C(C)C)cc1-n1c(=O)n(C)c2cnc3ccc(-c4cnc5c(c4)COC(=O)N5C)cc3c21: 1820
- COc1ccc(-c2ccc3ncc4c(c3c2)n(-c2cc(C)nn2C)c(=O)n4C)cn1: 96
- CCN(CC)C(=O)Cn1cc(-n2c(=O)n(C)c3cnc4ccc(-c5cnc(N6CCCC6)nc5)cc4c32)c(C)n1: 13

(P) Cc1nn(C)cc1-n1c(=O)n(C)c2cnc3ccc(-c4cncc(OCC5CC5)c4)cc3c21
(Q) CCNc1ncc(-c2ccc3ncc4c(c3c2)n(-c2cn(C)nc2C)c(=O)n4C)cc1Cl
Query string: Between the entries labelled P and Q , which has a larger IC50 value on record? // respond with label for picked entry
Result string: P
(P: 65 nM, Q: 11 nM)
